- Tested on: SN12C
- method-summary: NCI tumour cell line growth inhibition, 48 h
Activity calls are given as the source filed them. Cut-off read from the data, not from the text of the source: active = GI50 up to about 1.1 µM and inactive = higher.
I'd appreciate it if you could supply GI50 values for the items below.

For orientation, consider the following solved cases.
Incoming: Give a short answer stating reported GI50 for COc1ccc(-c2cn3c(nc4ccccc43)c(/C=C/c3cccs3)n2)cc1 .
Outgoing: > 100 µM (inactive)

Incoming: Give a short answer stating reported GI50 for Cc1cn([C@@H]2C[C@H](CO)[C@@H](O)C2)c(=O)[nH]c1=O .
Outgoing: > 100 µM (inactive)

Incoming: Give a short answer stating reported GI50 for COC(=O)C1=NN2c3ccccc3C(=O)OCCC2C1 (stereo unspecified) .
Outgoing: > 100 µM (inactive)

Incoming: Give a short answer stating reported GI50 for S=c1nc(N2CCCCC2)c2cn[nH]c2[nH]1 .
Outgoing: 79.8 µM (inactive)

Incoming: Give a short answer stating reported GI50 for CC12CC/C(=N/NC(N)=O)C3C1CCCC32 .
Outgoing: > 100 µM (inactive)

Here is the next item to consider.
Incoming: Give a short answer stating reported GI50 for COc1ccc(-c2ccccc2)c(N/N=C2\CCCNC2=O)c1 .
Outgoing: > 100 µM (inactive)

---

- System: OVCAR-4
- method-summary: NCI tumour cell line growth inhibition, 48 h
The source made the active and inactive calls. Cut-off read from the data, not from the text of the source: active = GI50 up to about 1.1 µM and inactive = higher.
I'd appreciate it if you could supply GI50 values for the items below.

For orientation, consider the following solved cases.
Incoming: Give a short answer stating reported GI50 for C[C@H]1[C@H](N2CCCC2)O[Si](C(C)(C)C)(C(C)(C)C)[C@@H]1C .
Outgoing: > 100 µM (inactive)

Incoming: Give a short answer stating reported GI50 for CCOC(=O)/C(C(=O)Nc1cccc(Cl)c1)=C(/N)N1CCCC1 .
Outgoing: > 100 µM (inactive)

Incoming: Give a short answer stating reported GI50 for CCCCCOc1ccc(NC2=C(Cl)C(=O)c3c(O)ccc(O)c3C2=O)cc1 .
Outgoing: 5.12 µM (inactive)

Incoming: Give a short answer stating reported GI50 for CSc1c(C#N)c(O)n(-c2ccc(C)cc2)c(=O)c1C#N .
Outgoing: > 100 µM (inactive)

Incoming: Give a short answer stating reported GI50 for CC(C)C1C(=O)N(c2c(F)c(F)c(F)c(F)c2F)C(=S)N1CC[S+]([O-])c1ccccc1 (stereo not drawn) .
Outgoing: 16.3 µM (inactive)

Incoming: Give a short answer stating reported GI50 for Cc1ccc(S(=O)(=O)N2CCSCCSCCN(S(=O)(=O)c3ccc(C)cc3)CCN(S(=O)(=O)c3ccc(C)cc3)CC2)cc1 .
Outgoing: > 100 µM (inactive)

Incoming: Give a short answer stating reported GI50 for C=C(C[C@@H](O)[C@H](C)NC(=O)OCc1ccccc1)C(=O)OC(C)(C)C .
Outgoing: 47.5 µM (inactive)

Here is the next item to consider.
Incoming: Give a short answer stating reported GI50 for C/C(=C/CC[C@]1(CO)CC[C@]2(CO)[C@H](CC[C@@H]3[C@@]4(C)CC[C@H](OC5OCC(O)C(O)C5OC5OC(CO)C(O)C(O)C5O)C(C)(C)[C@@H]4CC[C@]32C)[C@H]1O)CO (stereo partly drawn) .
Outgoing: > 100 µM (inactive)

---

- System: RPMI-8226
- method-summary: NCI tumour cell line growth inhibition, 48 h
Calls of active or inactive are those of the source. Rule as the data show it: active = GI50 up to about 1.1 µM and inactive = higher.
assay-readout: GI50

Incoming: Give a short answer stating reported GI50 for N#Cc1c(N)c(C(=O)O)nn(-c2cccc(C(F)(F)F)c2)c1=O .
Outgoing: 88.9 µM (inactive)

Incoming: Give a short answer stating reported GI50 for CCOC(=O)c1c2ccccc2n2c(=O)n(-c3ccc(OC)cc3)nnc12 .
Outgoing: 25.1 µM (inactive)

Incoming: Give a short answer stating reported GI50 for Cc1ccc(-n2c(O)c(C#N)c3[nH]nc(N)c3c2=O)cc1 .
Outgoing: > 100 µM (inactive)

Respectfully, I request GI50 for each entry included below.
1. CC1CC(c2ccc(Cl)c(Cl)c2)=Nc2ccccc2S1 (stereo unspecified)
2. CCOC(=O)/C(C(=O)Nc1cccc(Cl)c1)=C(/N)N1CCCC1
3. c1ccc(NNN2NC(c3ccccc3)C2c2ccccc2)cc1 (stereo unspecified)
4. CC1(C)CC(=O)c2c(nc3ccc4ccccc4c3c2-c2ccc(NC(=O)CCCCCCCCC(=O)Nc3ccc(-c4c5c(nc6ccc7ccccc7c46)CC(C)(C)CC5=O)cc3)cc2)C1
5. O=C1c2ccccc2C(=O)c2nc3c(O)cccc3cc21
6. CC(C)[Si]1(C(C)C)OCC2OC3(CO)C(Oc4nc(=O)ccn43)C2O[Si](C(C)C)(C(C)C)O1 (stereo unspecified)

Outgoing:
1. > 100 µM (inactive)
2. > 100 µM (inactive)
3. > 100 µM (inactive)
4. > 100 µM (inactive)
5. 6.47 µM (inactive)
6. 5.81 µM (inactive)
